Assay: Plasma pharmacokinetics (LC–MS/MS, non-compartmental analysis)
Assay type: in vivo, Japanese patients
Conditions: human, plasma, oral, 400 mg, Cycle 1 Day 1; 400 mg bid; n = 4; read-out: AUC0 − 24, Median
Description: The PK parameters were determined by non-compartmental analysis using Phoenix WinNonlin 6.2® (Pharsight, Mountain View, CA).
parameter_measured: AUC(0-t) (ng·h/mL)
Enter your answer as a number in ng·h/mL; do not include the unit.

Q: # input compound: Cn1c(=O)n(-c2ccc(C(C)(C)C#N)cc2)c2c3cc(-c4cnc5ccccc5c4)ccc3ncc21 [BEZ235] ; wanted: its AUC(0-t)
A: 1760
